# SYSTEM NAME: T1, 4H575-bN
# T1 chain: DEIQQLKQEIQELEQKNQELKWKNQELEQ
# TEST PROTOCOL: two-hybrid library CCNG1;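 also: natural log of median RNA to DNA barcode read ratio; higher means stronger binding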
REPORTED METRIC: interaction score

>  <BINDER>
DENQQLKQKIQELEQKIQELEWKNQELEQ [4H1831-bN]

>  <interaction score>
-0.248

$$$$

P. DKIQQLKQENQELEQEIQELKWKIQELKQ [4H2702-bN]
Q. DEIQQLEQKIQELKQENQELKWEIQELKQ [4H346-bN]
R. DEIQQLEQKNQELKQEIQELKWEIQELEQ [4H457-bN]
[ask] In this exercise, place the 3 binders in ascending sequence of their recorded interaction score. Please respond by ranking the labels in the order requested.
[reply] R, Q, P
(R: -0.989, Q: -0.652, P: -0.212)
